SYSTEM: SaCas9 (Staphylococcus aureus)
PROCEDURE_TEXT: Strand displacement assay, SaCas9 primary screen
Format: biochemical
PARTICULARS: SaCas9 primary screen, weaker potential hits, replicate 1
Parameter Normalized Zscore Rep 1: see the listing below.
Respond with the number and no other words.

Consider the following illustrative entries.
{"COMPOUND": "Cc1cc(Nc2ccccc2)n(-c2ccccc2C(=O)O)n1", "SYSTEM": "SaCas9 (Staphylococcus aureus)", "Normalized Zscore Rep 1": 0.4933}
{"COMPOUND": "Fc1ccc(OCc2nn3c(-c4ccccn4)nnc3s2)cc1", "SYSTEM": "SaCas9 (Staphylococcus aureus)", "Normalized Zscore Rep 1": 0.3566}
{"COMPOUND": "Fc1ccc(-c2nn3c(CSc4ccccc4)nnc3s2)cc1", "SYSTEM": "SaCas9 (Staphylococcus aureus)", "Normalized Zscore Rep 1": 0.2272}
{"COMPOUND": "CN(C)S(=O)(=O)Nc1ccc(N2CCC(CCN3CCOCC3)CC2)c(C(=O)O)c1", "SYSTEM": "SaCas9 (Staphylococcus aureus)", "Normalized Zscore Rep 1": 0.2307}
{"COMPOUND": "Cc1nc2ccccc2n1Cc1nnc2n1N=C(N)CS2", "SYSTEM": "SaCas9 (Staphylococcus aureus)", "Normalized Zscore Rep 1": 0.1478}

Simply: Cc1cc(C)c(S(=O)(=O)Nc2cnc(N(CC(C)C)CC(C)C)c(C(=O)O)c2)cc1C , SaCas9 (Staphylococcus aureus), Normalized Zscore Rep 1 = 0.335

Simply: O=C(O)c1ccc(N2CCN(c3ccccn3)CC2)c(NC(=O)c2ccc(Br)cc2)c1 , SaCas9 (Staphylococcus aureus), Normalized Zscore Rep 1 = 0.2335

Simply: Nc1c(C(=O)NCC2CCCO2)sc(=S)n1-c1ccc(Cl)cc1 (stereo not drawn) , SaCas9 (Staphylococcus aureus), Normalized Zscore Rep 1 = 0.3168

Simply: Nc1c(C(=O)N2CCCCC2)sc(=S)n1Cc1ccccc1 , SaCas9 (Staphylococcus aureus), Normalized Zscore Rep 1 = 0.2801

Simply: Cc1ccc(CSc2nc3c(c(=O)[nH]2)C(c2ccc(O)c(O)c2)CC(=O)N3)cc1 (stereo not drawn) , SaCas9 (Staphylococcus aureus), Normalized Zscore Rep 1 = 0.198

Simply: Nc1c(C(=O)N2CCCC2)sc(=S)n1Cc1ccccc1 , SaCas9 (Staphylococcus aureus), Normalized Zscore Rep 1 = 0.3576

Simply: CCN(Cc1ccccc1)c1ncc(NS(=O)(=O)c2ccccc2)cc1C(=O)O , SaCas9 (Staphylococcus aureus), Normalized Zscore Rep 1 = 0.2707

Simply: CCOC(=O)c1c(NC(=O)CSc2nnc3cc(C)c4cccc(OC)c4n23)sc(C)c1C , SaCas9 (Staphylococcus aureus), Normalized Zscore Rep 1 = 0.1526

Simply: COc1ccc2cc3c(N)nn(C(=O)c4ccc(F)cc4)c3nc2c1 , SaCas9 (Staphylococcus aureus), Normalized Zscore Rep 1 = 0.1698

Simply: Cc1ccc(C)c(SCC(=O)NC(C)C(c2ccccc2)N2CCOCC2)c1 (stereo not drawn) , SaCas9 (Staphylococcus aureus), Normalized Zscore Rep 1 = 0.2923

Simply: CC1(C)CC(=O)C2=C(C1)Nc1onc(C(C)(C)C)c1C2c1ccc(O)c(O)c1 (stereo not drawn) , SaCas9 (Staphylococcus aureus), Normalized Zscore Rep 1 = 0.4191

Simply: O=C(NCCCN1CCC(N2CCCCC2)CC1)C1=Cc2sc3c(c2CS1)CCCC3 , SaCas9 (Staphylococcus aureus), Normalized Zscore Rep 1 = 0.4606

Simply: O=C(CSc1ccc2ccccc2c1)NCCc1ccc(O)c(O)c1 , SaCas9 (Staphylococcus aureus), Normalized Zscore Rep 1 = 0.4351

###

Parameter Normalized Z rep1: see the listing below.
SYSTEM: SpCas9 (Streptococcus pyogenes serotype M1, UniProt Q99ZW2)
Sequence (Q99ZW2 whole entry): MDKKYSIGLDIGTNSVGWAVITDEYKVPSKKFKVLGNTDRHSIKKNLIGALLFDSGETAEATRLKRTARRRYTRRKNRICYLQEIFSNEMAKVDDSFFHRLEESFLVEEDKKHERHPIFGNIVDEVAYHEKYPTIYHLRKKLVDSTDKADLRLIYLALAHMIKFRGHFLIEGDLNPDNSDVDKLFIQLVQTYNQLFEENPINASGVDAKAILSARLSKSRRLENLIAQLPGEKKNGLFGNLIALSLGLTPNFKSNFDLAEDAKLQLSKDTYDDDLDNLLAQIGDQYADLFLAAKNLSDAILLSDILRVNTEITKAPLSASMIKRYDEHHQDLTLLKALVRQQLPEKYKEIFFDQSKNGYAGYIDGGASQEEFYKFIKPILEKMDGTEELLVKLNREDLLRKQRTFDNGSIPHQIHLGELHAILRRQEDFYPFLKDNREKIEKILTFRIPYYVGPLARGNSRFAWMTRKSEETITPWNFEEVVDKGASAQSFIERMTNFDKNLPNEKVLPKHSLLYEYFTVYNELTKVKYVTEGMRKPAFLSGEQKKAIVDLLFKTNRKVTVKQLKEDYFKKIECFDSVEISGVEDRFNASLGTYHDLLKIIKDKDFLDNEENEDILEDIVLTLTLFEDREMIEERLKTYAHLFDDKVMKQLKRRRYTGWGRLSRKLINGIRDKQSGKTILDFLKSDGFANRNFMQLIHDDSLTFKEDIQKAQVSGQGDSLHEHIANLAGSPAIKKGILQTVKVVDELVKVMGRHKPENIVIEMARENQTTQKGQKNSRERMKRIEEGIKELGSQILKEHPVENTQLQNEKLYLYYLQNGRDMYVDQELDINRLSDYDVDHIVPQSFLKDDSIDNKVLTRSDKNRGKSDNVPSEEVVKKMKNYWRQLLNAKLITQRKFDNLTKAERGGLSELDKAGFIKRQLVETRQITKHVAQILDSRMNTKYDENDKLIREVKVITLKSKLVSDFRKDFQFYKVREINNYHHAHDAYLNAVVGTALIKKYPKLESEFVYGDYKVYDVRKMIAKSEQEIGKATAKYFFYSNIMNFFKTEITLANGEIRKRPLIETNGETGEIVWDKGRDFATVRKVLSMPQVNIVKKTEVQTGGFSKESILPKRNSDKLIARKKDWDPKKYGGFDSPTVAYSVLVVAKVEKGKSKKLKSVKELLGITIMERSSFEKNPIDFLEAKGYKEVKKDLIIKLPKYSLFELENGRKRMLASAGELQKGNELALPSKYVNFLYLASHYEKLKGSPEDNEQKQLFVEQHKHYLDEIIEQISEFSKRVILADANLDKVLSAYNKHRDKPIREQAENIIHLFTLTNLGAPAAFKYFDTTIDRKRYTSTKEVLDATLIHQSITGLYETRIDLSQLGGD
PROCEDURE_TEXT: eGFP disruption assay, SpCas9, U2OS.eGFP.PEST cells
Format: cell-based
PARTICULARS: replicate 1
Respond with the number and no other words.

Consider the following illustrative entries.
{"MOLECULE": "COc1ccc(CCc2nnc3sc(-c4ccncc4)nn23)cc1OC", "Normalized Z rep1": "−0.16"}
{"MOLECULE": "Cc1ccc(C(C)NC(=O)c2cccc(Oc3cc(-c4ccccc4)ncn3)c2)cc1 (stereo not drawn)", "Normalized Z rep1": "−0.10"}
{"MOLECULE": "Cc1nn(-c2ccccc2)c(C)c1CCc1nn2c(-c3cccc(F)c3)nnc2s1", "Normalized Z rep1": "−0.36"}

Notebook: Nc1c(C(=O)N2CCCC2)sc(=S)n1Cc1ccccc1 , Normalized Z rep1 read as −0.05

Notebook: Nc1c(C(=O)NCC2CCCO2)sc(=S)n1-c1ccc(Cl)cc1 (stereo not drawn) , Normalized Z rep1 read as −0.08

Notebook: COc1ccc(Cc2nnc3sc(-c4ccccc4OC)nn23)cc1 , Normalized Z rep1 read as −0.57

Notebook: Clc1ccccc1OCc1nn2c(-c3ccccn3)nnc2s1 , Normalized Z rep1 read as −0.39

Notebook: c1cncc(-c2nnc3sc(Cc4ccc5c(c4)OCCO5)nn23)c1 , Normalized Z rep1 read as −0.24

Notebook: CNC(=O)c1sc(=S)n2c1[nH]c(=O)c1cc(Br)ccc12 , Normalized Z rep1 read as −0.25

###

Parameter Normalized eGFP Disruption Rep 2: see the listing below.
SYSTEM: SaCas9 (Staphylococcus aureus)
PROCEDURE_TEXT: eGFP secondary assay, SaCas9
Format: cell-based
PARTICULARS: replicate 2, % eGFP disruption
Respond with the number and no other words.

Consider the following illustrative entries.
{"COMPOUND": "CCOc1ccc(NC(=O)c2cc(=O)c3cc(CC)ccc3o2)c2cccnc12 [Compound D656-0061]", "Normalized eGFP Disruption Rep 2": 43.101}
{"COMPOUND": "CC(=O)Nc1ccc(C(=O)Nc2ccc(CCc3nc4ccccc4n3-c3ccccc3)cc2)cc1 [F255-0057]", "Normalized eGFP Disruption Rep 2": 54.359}
{"COMPOUND": "Cc1cc(=O)c2cc(C(=O)Nc3ccc(F)cc3)ccc2[nH]1 [D421-0876]", "Normalized eGFP Disruption Rep 2": 52.657}

Notebook: Cc1ccc(C)c(Nc2nc(C(N)=O)c(NC(=O)c3ccc(C)nc3Cl)s2)c1 [D686-0195] , Normalized eGFP Disruption Rep 2 read as 35.542

Notebook: Cc1ccc(-n2ncc(C(=O)Nc3ccc(Br)cc3)c2C2CCNCC2)cc1 [Compound E922-0258] , Normalized eGFP Disruption Rep 2 read as 40.996

Notebook: CCCCn1nnnc1NCc1ccc2c(c1)n(C)c(=O)n2C [Compound D664-0047] , Normalized eGFP Disruption Rep 2 read as 52.771

###

Parameter Normalized Zscore Rep 2: see the listing below.
SYSTEM: SaCas9 (Staphylococcus aureus, UniProt J7RUA5)
Sequence (J7RUA5 whole entry): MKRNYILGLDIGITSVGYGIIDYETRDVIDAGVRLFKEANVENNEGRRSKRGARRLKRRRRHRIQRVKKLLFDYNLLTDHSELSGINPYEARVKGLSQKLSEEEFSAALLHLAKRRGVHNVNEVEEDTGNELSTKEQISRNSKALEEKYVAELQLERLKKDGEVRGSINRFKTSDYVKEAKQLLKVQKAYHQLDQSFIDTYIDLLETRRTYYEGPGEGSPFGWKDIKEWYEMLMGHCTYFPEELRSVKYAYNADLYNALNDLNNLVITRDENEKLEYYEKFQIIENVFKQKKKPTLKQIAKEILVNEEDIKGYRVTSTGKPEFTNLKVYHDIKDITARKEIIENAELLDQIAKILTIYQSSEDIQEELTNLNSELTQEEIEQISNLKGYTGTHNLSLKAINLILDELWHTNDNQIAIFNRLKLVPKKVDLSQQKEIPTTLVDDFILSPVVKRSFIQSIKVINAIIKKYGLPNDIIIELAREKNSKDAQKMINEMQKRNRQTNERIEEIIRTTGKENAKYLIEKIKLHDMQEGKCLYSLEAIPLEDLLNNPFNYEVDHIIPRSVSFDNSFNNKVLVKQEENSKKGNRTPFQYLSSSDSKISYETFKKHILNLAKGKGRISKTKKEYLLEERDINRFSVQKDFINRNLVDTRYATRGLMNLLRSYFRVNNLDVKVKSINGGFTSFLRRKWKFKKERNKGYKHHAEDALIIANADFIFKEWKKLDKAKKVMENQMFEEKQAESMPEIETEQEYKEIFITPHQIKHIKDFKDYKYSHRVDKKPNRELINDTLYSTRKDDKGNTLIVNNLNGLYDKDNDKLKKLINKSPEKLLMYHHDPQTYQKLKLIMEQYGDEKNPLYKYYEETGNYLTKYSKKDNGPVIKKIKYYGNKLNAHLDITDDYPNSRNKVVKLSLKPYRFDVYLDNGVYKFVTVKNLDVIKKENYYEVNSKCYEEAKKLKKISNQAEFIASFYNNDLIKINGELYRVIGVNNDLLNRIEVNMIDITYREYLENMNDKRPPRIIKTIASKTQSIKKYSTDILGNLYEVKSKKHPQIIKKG
PROCEDURE_TEXT: Strand displacement assay, SaCas9 primary screen
Format: biochemical
PARTICULARS: SaCas9 primary screen, weaker potential hits, replicate 2
Respond with the number and no other words.

{"COMPOUND": "COc1ccc(C2CC(=O)C3=C(C2)Nc2onc(C)c2C3c2ccc(O)c(O)c2)cc1OC (stereo not drawn)", "Normalized Zscore Rep 2": 0.2618}
{"COMPOUND": "CCS(=O)(=O)Nc1cnc(N(C)CCCc2c(C)nn(C)c2C)c(C(=O)O)c1", "Normalized Zscore Rep 2": 0.2772}
{"COMPOUND": "Cc1noc2c1C(c1ccc(O)c(O)c1)C1=C(CC(c3ccccc3)CC1=O)N2 (stereo not drawn)", "Normalized Zscore Rep 2": 0.3021}

Continue with the compound presented below.
Simply: CCN(Cc1ccccc1)c1ccc(NS(=O)(=O)c2cc(OC)ccc2OC)cc1C(=O)O , SaCas9 (Staphylococcus aureus, UniProt J7RUA5), Normalized Zscore Rep 2 = 0.1434

###

SYSTEM: SaCas9 (Staphylococcus aureus)
PROCEDURE_TEXT: Strand displacement assay, SaCas9 primary screen
Assay type: biochemical
PARTICULARS: SaCas9 primary screen, Auto Zscore, replicate 1
Parameter Auto Zscore Rep 1: see the listing below.
Respond with the number and no other words.

{"COMPOUND": "CN(C)S(=O)(=O)Nc1ccc(N2CCCC(CN3CCCC3)C2)c(C(=O)O)c1 (centres unmarked) [Compound F294-0983]", "SYSTEM": "SaCas9 (Staphylococcus aureus)", "NUMERIC_RESULT": "−0.3877"}
{"COMPOUND": "COc1ccc(C2CC(=O)C3=C(C2)Nc2onc(C)c2C3c2ccc(O)c(O)c2)cc1OC (centres unmarked) [Cpd D588-0034]", "SYSTEM": "SaCas9 (Staphylococcus aureus)", "NUMERIC_RESULT": 0.4938}
{"COMPOUND": "Cn1nc(-c2ccc(Cl)cc2)c2cc(C(=O)O)sc21 [Cpd C660-1021]", "SYSTEM": "SaCas9 (Staphylococcus aureus)", "NUMERIC_RESULT": 1.316}

Notebook: Cc1ccc(C)c(SCC(=O)NC(C)C(c2ccccc2)N2CCOCC2)c1 (centres unmarked) [Cpd T0507-0044] , Auto Zscore Rep 1 read as 1.662

Notebook: O=C(O)c1cc(NS(=O)(=O)c2cc(F)ccc2F)cnc1N1CCOCC1 [Cpd F293-0775] , Auto Zscore Rep 1 read as −0.9384

Notebook: CN(C)S(=O)(=O)Nc1ccc(N2CCC(C(N)=O)(N3CCCCC3)CC2)c(C(=O)O)c1 [Compound F294-0183] , Auto Zscore Rep 1 read as −1.66

Notebook: COc1ccc(OC)c(S(=O)(=O)Nc2cnc(N3CCCC3)c(C(=O)O)c2)c1 [Cpd F293-0436] , Auto Zscore Rep 1 read as −1.371

Notebook: Cc1ccc(C)n1CCN1CCN(S(=O)(=O)c2ccccc2)CC1 [Cpd T0510-3387] , Auto Zscore Rep 1 read as 1.126

Notebook: CS(=O)(=O)Nc1cnc(N2CCC(C(N)=O)(N3CCCCC3)CC2)c(C(=O)O)c1 [Compound F293-0183] , Auto Zscore Rep 1 read as 1.533
